Entry source: PubChem BioAssay AID1813

Below, each of the compounds is paired with its reported inhibition value.
assayRemarks: 5' untranslated region of α-synuclein, MLPCN primary screen (AID 1813);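 also: H4 neuroglioblastoma cells stably carrying SNCA 5'UTR luciferase fusion; 0% = DMSO wells and 100% = positive control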
measurementConditions: alpha-synuclein 5'UTR reporter, inhibitor activity; stronger effect = higher value; tested at 7.5 µM
Hit rate of the full screen: of about 300,000 compounds, about 2,500 (0.83%) were called active. The list comes from a sample in which actives are over-represented; it also holds close analogues and randomly drawn compounds.
The reply should contain only the number, in %.

Worked examples, 2 compounds total:
{"compound": "O=C(Cc1ccc(-n2c(=O)c3sccc3n(Cc3ccc(F)cc3)c2=O)cc1)NCc1ccco1", "endpointValue": 11.3}
{"compound": "Cc1noc(C)c1/C=N/Nc1ccc2ccccc2n1", "endpointValue": -146}

Exercise: Requested read-out: inhibition. Entry: CCOc1cccc(OCCCOc2cccc3cccnc23)c1
Key: 5.95

Exercise: Given the entry CN(CC(=O)Nc1c(Cl)cccc1Cl)C(=O)c1ccncc1 , report its measured inhibition.
Key: 8.69

Exercise: Report inhibition for COc1ccc(C)c(Cn2c(-c3nonc3N)nc3ccccc32)c1 please.
Key: 76.2

Exercise: Which inhibition value is on record for O=C(NCc1cccnc1)C12CC3CC(CC(C3)C1)C2 ?
Key: 16.2

Exercise: Which inhibition is reported for this compound? O=C(NN1C(=O)C2C(C1=O)C1C=CC2C12CC2)c1ccccc1Cl (stereo unspecified)
Key: 12.2

Exercise: Quick check: inhibition of Nc1nonc1-c1nc2ccccc2n1Cc1ccc(F)cc1 ?
Key: 49

Exercise: // returns reported inhibition for input CC12CCC(C(=O)N(c3cccc(Cl)c3)C1=O)C2(C)C (stereo unspecified)
Key: 15.6

Exercise: So what does the record say about inhibition for CC(C)(C)c1ccc(Oc2ccc(N)cc2)cc1 ?
Key: 112

Exercise: Reported inhibition, compound Cc1nc2ccccc2nc(=O)c1NNc1ccc([N+](=O)[O-])cc1 : ____
Key: -109
